# Tested on: DU-145 prostate
# assayComment: NCI-60 one-dose screen, 48 h (100 = growth as untreated, 0 = no growth, -100 = all killed)
# settings: 10 µM unless noted
Compounds without any hit were thinned out: in the full panel of roughly 83,000, 20% have a hit.
Give Condition met when the value for growth is at least 60%. Give Condition not met when it is less.

Example results:
# molecule, discreteLabel
records = [
    ("CCC(C)C1NC(=O)C(CCNCS(=O)(=O)O)NC(=O)C(NC(=O)C(CCNCS(=O)(=O)O)NC(=O)C(NC(=O)C(CCNCS(=O)(=O)O)NC(=O)CCCCC(C)C)C(C)O)CCNC(=O)C(C(C)O)NC(=O)C(CCNCS(=O)(=O)O)NC(=O)C(CCNCS(=O)(=O)O)NC(=O)C(C(C)CC)NC1=O (stereo not drawn)", "Condition met"),
    ("CCCCCCC(CC#N)(CCC)CCCC (stereo not drawn)", "Condition met"),
    ("CC(NNC(=S)N1CCCCCC1)c1ccc2ccccc2n1 (stereo not drawn)", "Condition not met"),
    ("O=C(Nc1ccc(Cl)cc1)Nc1ccccc1CNc1nc(Nc2ccc(OCCN3CCCC3)cc2)ncc1Cl", "Condition not met"),
    ("CN(C)CCCNc1nn2c(=O)c3ccccc3nc2c2ccccc12", "Condition met"),
]

Does the molecule Cc1cc(C)nc(NS(=O)(=O)c2ccc(Nc3nc4nc(SCc5ccccc5)nc(-c5ccc(O)cc5)c4c(=O)[nH]3)cc2)n1 have recorded growth that is 60% or more?
Condition met

Does the molecule COc1ccc(/C=C2/SC(=Nc3c(C)nn(-c4ccccc4)c3N)NC2=O)cc1 have recorded growth that is 60% or more?
Condition not met

Does the molecule O=C(CN1CCN(c2ccc(Cl)cc2)CC1)N1CCN(c2nnc(-c3ccccc3)c(-c3ccccc3)n2)CC1 have recorded growth that is 60% or more?
Condition met

----------
# Test system: ACHN renal
# assayComment: NCI-60 one-dose screen, 48 h (100 = growth as untreated, 0 = no growth, -100 = all killed)
# settings: 10 µM unless noted
About 83,000 compounds went through this panel and 20% of them were active in at least one assay; those are over-represented in the sample as a whole. The source made the active and inactive calls. The calls were made as follows: active = growth percent below 10; inactive = the rest.
growth listing for selected compounds.

# compound, growth
data = [
    ("N/C(=N\\c1nc2ccccc2s1)NC(=O)Nc1ccccc1Cl", "42.2% (inactive)"),
    ("CCCCCCCCCCCCCCCCNC(=O)Nc1ccc2ccccc2c1", "108% (inactive)"),
    ("O=c1ccn(C2CC=C(CO)O2)c(=O)[nH]1 (stereo not given)", "109% (inactive)"),
]

Okay, now this compound:
growth on ACHN renal for CCCCCCCCCCN1CCC(N2CCCCC2)CC1 is 38.2% (inactive)

----------
# System: HS 578T breast
# assayComment: NCI-60 one-dose screen, 48 h
# settings: 10 µM unless noted
The panel holds about 83,000 compounds, 20% with a hit somewhere; the sample as a whole holds those more often. Calls of active or inactive are those of the source. Rule for the calls: active = growth percent below 10; inactive = the rest.
Give one outcome, nothing more. List: 1 (active), 0 (inactive)

Example results:
# compound, discreteLabel
rows = [
    ("CCOC(=O)c1sc(NC(=O)COc2cccc(/C=C3\\CCc4cc(OC)ccc4C3=O)c2)nc1C", 0),
    ("Nc1nc(Nc2ccccc2SSc2ccccc2Nc2nc(N)nc(-c3ccc(I)cc3)n2)nc(-c2ccc(I)cc2)n1", 0),
    ("Cn1ccnc1C(=O)/C=C/c1ccc(C(=O)Nc2nc3ccccc3[nH]2)cc1", 0),
]

What did this assay record as the result for CSc1nc(N)c2c(n1)N(C)C=NS2(=O)=O ?
0

What did this assay record as the result for CC(C)=CCNc1ncnc2c1ncn2C1OC(COP(=O)(O)O)C(O)C1O (centres undefined) ?
0

What did this assay record as the result for COC(=O)[C@H](Cc1cn(C)cn1)NC(=O)[C@@H](NC(=O)Nc1cc(C(F)(F)F)cc(C(F)(F)F)c1)C(C)C ?
1

What did this assay record as the result for CCCCCN(CCCCC)CCCNc1c2c(nc3ccc(Cl)cc13)CCCC2 ?
0

What did this assay record as the result for O=c1ccn(C2CC=C(CO)O2)c(=O)[nH]1 (centres undefined) ?
0

What did this assay record as the result for CC(=O)c1ccccc1NC(=O)C(C)(c1ccccc1)c1ccccc1 ?
0

What did this assay record as the result for COc1cc(/C=N/NC(=O)c2ccc(C(F)(F)F)nc2Nc2cc(Cl)ccc2C)cc(OC)c1OC ?
0

What did this assay record as the result for CC(C)OP(=O)(OC(C)C)c1ncc(-c2ccc(C(F)(F)F)cc2)c(NC2CCCCCC2)n1 ?
1

What did this assay record as the result for O=C(O)c1ccc(CNS(=O)(=O)c2ccc3ccccc3c2)cc1 ?
0

All figures here come from PubChem BioAssay (NCI).
